- SYSTEM TESTED: CDK2/Cyclin A complex (Homo sapiens, UniProt P24941)
- METHOD DESCRIPTION: CDK2/Cyclin A assay
- Type: biochemical
- COND: 1.0 μM; combinatorial library compounds
OBSERVABLE: inhibition at 1 µM (%)

Cc1onc(-c2ccccc2)c1-c1csc(-c2sc(Nc3ccc(N(C)C)cc3)nc2N)n1
8.3
CCOC(=O)c1cc(-c2csc(-c3sc(Nc4ccc(C(C)C)cc4)nc3N)n2)on1
15
CN(C)c1ccc(Nc2nc(N)c(-c3nc(-c4ccc(Cl)cc4Cl)cs3)s2)cc1
17.3

I: CC(=O)Oc1ccccc1-c1csc(-c2sc(Nc3ccc(S(N)(=O)=O)cc3)nc2N)n1
II: Cc1c(-c2csc(-c3sc(Nc4ccc(C(C)C)cc4)nc3N)n2)sc2ccc(Cl)cc12 [drawing 487]
III: CC(C)c1ccc(Nc2nc(N)c(-c3nc(-c4ccc(O)cc4)cs3)s2)cc1
IV: CC(C)c1ccc(Nc2nc(N)c(-c3nc(-c4ccccc4[N+](=O)[O-])cs3)s2)cc1
*Q* Which order do these items take when sorted by rising inhibition at 1 µM? List them. Write the labels in rank order as requested.
*A* III, IV, I, II

----------
- Tested on: human umbilical vein endothelial cells (HUVEC)
- METHOD DESCRIPTION: HUVEC proliferation assay
- Format: cell-based
- COND: Homo sapiens, HUVEC, 50 nM; crude combinatorial urea library; read-out: Inhibition of HUVEC Proliferation % inhibition @ 50 nM
Entries and their inhibition at 0.05 µM
Just the number in %, nothing appended.

CNC(=O)CNC(=O)Nc1nc(N)c(-c2nc(-c3cccc(NC(=O)c4cccc(OC)c4)c3)cs2)s1
23
CCN(CC)CCNC(=O)Nc1nc(N)c(-c2nc(-c3cccc(NC(=O)c4cccc(OC)c4)c3)cs2)s1
39
CCN1CCCC1CNC(=O)Nc1nc(N)c(-c2nc(-c3cccc(NC(=O)c4cccc(OC)c4)c3)cs2)s1 (centres unmarked)
108
COc1cccc(C(=O)Nc2cccc(-c3csc(-c4sc(NC(=O)N[C@@H](CC(N)=O)C(N)=O)nc4N)n3)c2)c1
23
COc1cccc(C(=O)Nc2cccc(-c3csc(-c4sc(NC(=O)NCCN(C(C)C)C(C)C)nc4N)n3)c2)c1
22

*Q* Request the reported inhibition at 0.05 µM associated with COc1cccc(C(=O)Nc2cccc(-c3csc(-c4sc(NC(=O)NCP(=O)(O)O)nc4N)n3)c2)c1
*A* 38

*Q* Request the reported inhibition at 0.05 µM associated with CCC(CO)NC(=O)Nc1nc(N)c(-c2nc(-c3cccc(NC(=O)c4cccc(OC)c4)c3)cs2)s1 (centres unmarked)
*A* 62

*Q* Request the reported inhibition at 0.05 µM associated with COc1cccc(C(=O)Nc2cccc(-c3csc(-c4sc(NC(=O)NCCc5ccncc5)nc4N)n3)c2)c1
*A* 97

*Q* Request the reported inhibition at 0.05 µM associated with COc1cccc(C(=O)Nc2cccc(-c3csc(-c4sc(NC(=O)NCCc5ccccn5)nc4N)n3)c2)c1
*A* 128

*Q* Request the reported inhibition at 0.05 µM associated with COc1cccc(C(=O)Nc2cccc(-c3csc(-c4sc(NC(=O)NCC5(O)CCCCC5)nc4N)n3)c2)c1
*A* 2

*Q* Request the reported inhibition at 0.05 µM associated with COc1cccc(C(=O)Nc2cccc(-c3csc(-c4sc(NC(=O)NCC(C)N(C)C)nc4N)n3)c2)c1 (centres unmarked)
*A* -3

*Q* Request the reported inhibition at 0.05 µM associated with COc1cccc(C(=O)Nc2cccc(-c3csc(-c4sc(NC(=O)NCCN5CCOCC5)nc4N)n3)c2)c1
*A* 121

*Q* Request the reported inhibition at 0.05 µM associated with COc1cccc(C(=O)Nc2cccc(-c3csc(-c4sc(NC(=O)NCCC(N)=O)nc4N)n3)c2)c1
*A* 1

*Q* Request the reported inhibition at 0.05 µM associated with CCN(CCNC(=O)Nc1nc(N)c(-c2nc(-c3cccc(NC(=O)c4cccc(OC)c4)c3)cs2)s1)c1cccc(C)c1
*A* 125

*Q* Request the reported inhibition at 0.05 µM associated with COc1cccc(C(=O)Nc2cccc(-c3csc(-c4sc(NC(=O)NCC(C)(C)CN(C)C)nc4N)n3)c2)c1
*A* 36

*Q* Request the reported inhibition at 0.05 µM associated with COc1cccc(C(=O)Nc2cccc(-c3csc(-c4sc(NC(=O)NC(CO)CO)nc4N)n3)c2)c1
*A* 52

*Q* Request the reported inhibition at 0.05 µM associated with COc1cccc(C(=O)Nc2cccc(-c3csc(-c4sc(NC(=O)NCCCN5CCCC5)nc4N)n3)c2)c1
*A* 101

This collection of values is drawn from patent US6620828B2.
